biological target: Scavenger receptor class B member 1 (Mus musculus); assay: SR-BI-mediated DiI-HDL uptake inhibitors, dose response, ldlA[mSR-BI] CHO cells, powder samples, set 4 (AID 588548); settings: DiI-HDL uptake fluorescence, 3 h
observedProperty: AC50

CCC(=O)N1CCc2cc(-c3csc(N(C)C(=O)c4cc(OC)cc(OC)c4)n3)ccc21 :: 50 nM
COc1cc(OC)cc(C(=O)Nc2nc(-c3ccc4c(c3)CCN4)cs2)c1 :: 103 nM
COCC(=O)N1CCc2cc(-c3csc(NC(=O)c4cc(OC)cc(OC)c4)n3)ccc21 :: < 15 nM
CCNC(=O)N1CCc2cc(-c3csc(NC(=O)c4cc(OC)cc(OC)c4)n3)ccc21 :: < 15 nM

Which AC50 is listed for CC(C(=O)NC1CCCC1)N(C(=O)Cn1nnc(-c2ccc(Cl)c(Cl)c2)n1)C1CCCCC1 (stereo not given) ?
250 nM
